- target entity: Polyunsaturated fatty acid 5-lipoxygenase (Homo sapiens) (UniProt P09917)
- Sequence (P09917 whole entry): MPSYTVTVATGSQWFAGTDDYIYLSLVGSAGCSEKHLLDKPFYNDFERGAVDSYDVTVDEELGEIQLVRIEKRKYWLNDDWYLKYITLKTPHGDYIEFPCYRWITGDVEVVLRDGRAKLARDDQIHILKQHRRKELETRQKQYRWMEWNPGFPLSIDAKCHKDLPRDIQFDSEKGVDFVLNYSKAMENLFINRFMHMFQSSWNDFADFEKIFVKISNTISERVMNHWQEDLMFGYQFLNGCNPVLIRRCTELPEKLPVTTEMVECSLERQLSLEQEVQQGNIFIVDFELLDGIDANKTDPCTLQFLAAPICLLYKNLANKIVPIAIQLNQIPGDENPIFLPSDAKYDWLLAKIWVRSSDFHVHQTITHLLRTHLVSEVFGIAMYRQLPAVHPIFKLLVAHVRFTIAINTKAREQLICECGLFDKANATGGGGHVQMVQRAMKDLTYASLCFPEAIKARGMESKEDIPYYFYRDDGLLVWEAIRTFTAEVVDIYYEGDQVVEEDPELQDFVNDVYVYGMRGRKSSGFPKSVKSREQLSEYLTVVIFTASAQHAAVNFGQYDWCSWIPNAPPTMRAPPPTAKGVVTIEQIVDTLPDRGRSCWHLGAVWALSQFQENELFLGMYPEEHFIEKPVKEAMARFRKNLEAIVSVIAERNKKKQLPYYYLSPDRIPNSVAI
- method summary: Inhibition of 5LO-mediated LTB4 production in calcium ionophore A23187-stimulated human neutrophils at 10 uM by RIA
metric name: Activity (ng/mL)

Activity for Polyunsaturated fatty acid 5-lipoxygenase (Homo sapiens) (UniProt P09917) with input COc1cc(/C=C2\CCn3c2nc2ccccc2c3=O)cc(OC)c1 equals 58.4

Activity for Polyunsaturated fatty acid 5-lipoxygenase (Homo sapiens) (UniProt P09917) with input O=c1c2ccccc2nc2n1CC/C2=C\c1ccc(C(F)(F)F)cc1 equals 57.9

Activity for Polyunsaturated fatty acid 5-lipoxygenase (Homo sapiens) (UniProt P09917) with input O=c1c2ccccc2nc2n1CC/C2=C\c1ccccc1 equals 61.6
